Biological target: Human ATX protein (Homo sapiens)
Construct: made in house
Test: ATX biochemical FRET assay with FS-3 substrate
Details: FS-3 2 μM, ATX 1.0 μg/mL, binned table, read-out: IC50 (μm)
pIC50: −log10 of the molar value.
Item-by-item account of pIC50

For the molecule C[C@H]1CC[C@@H](Oc2ccc3cccc(CN4C5CCC4CC(C(=O)O)C5)c3c2C(F)(F)F)CC1 (stereo partly drawn) [Example 22] , give its reported pIC50.
> 6.30

Report measured pIC50; entry is C[C@H]1CC[C@@H](Oc2ccc3c(CNCCCCCC(=O)O)cccc3c2C(F)(F)F)CC1 [Example 10]
> 6.30

***
// fetch pIC50 given entry O=C(O)C1CCN(Cc2cccc3c(C(F)(F)F)c(O[C@H]4CC[C@@H](C(F)(F)F)CC4)ccc23)CC1 [Example 11]
5.30 to 6.30
